SUBJECT OF TEST: purified human platelet αIIbβ3 (Homo sapiens, UniProt P05106+P08514)
Construct: detergent solubilized platelet lysates were passed over a Concanavalin A-Sepharose 4B column; from tissue; host or cells: human platelets (given as outdated human plasma; platelet lysates)
Sequence (P08514 32-887 limits assumed): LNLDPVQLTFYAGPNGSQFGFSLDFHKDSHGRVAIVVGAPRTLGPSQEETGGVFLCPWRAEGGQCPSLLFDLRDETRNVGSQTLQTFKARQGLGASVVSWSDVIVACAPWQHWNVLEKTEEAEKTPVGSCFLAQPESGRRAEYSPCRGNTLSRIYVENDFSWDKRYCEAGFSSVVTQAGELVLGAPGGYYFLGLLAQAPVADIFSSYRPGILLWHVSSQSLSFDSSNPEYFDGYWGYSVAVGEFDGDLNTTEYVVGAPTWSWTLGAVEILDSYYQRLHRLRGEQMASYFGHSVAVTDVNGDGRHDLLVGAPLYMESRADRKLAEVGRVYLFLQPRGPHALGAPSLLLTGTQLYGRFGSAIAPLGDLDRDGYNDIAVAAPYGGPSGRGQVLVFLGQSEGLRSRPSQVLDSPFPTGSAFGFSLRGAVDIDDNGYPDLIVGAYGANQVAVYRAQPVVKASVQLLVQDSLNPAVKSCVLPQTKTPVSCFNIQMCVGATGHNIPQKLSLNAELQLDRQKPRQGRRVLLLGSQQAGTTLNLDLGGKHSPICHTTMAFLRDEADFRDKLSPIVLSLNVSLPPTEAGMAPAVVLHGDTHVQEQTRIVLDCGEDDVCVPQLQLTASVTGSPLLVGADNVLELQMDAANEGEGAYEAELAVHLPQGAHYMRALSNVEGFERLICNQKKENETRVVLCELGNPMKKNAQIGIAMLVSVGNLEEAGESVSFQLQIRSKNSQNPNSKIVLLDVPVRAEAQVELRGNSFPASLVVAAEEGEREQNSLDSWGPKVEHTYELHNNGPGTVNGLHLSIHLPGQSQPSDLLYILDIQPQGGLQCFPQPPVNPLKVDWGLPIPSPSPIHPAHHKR
Sequence (P08514 891-1039 partner limits assumed): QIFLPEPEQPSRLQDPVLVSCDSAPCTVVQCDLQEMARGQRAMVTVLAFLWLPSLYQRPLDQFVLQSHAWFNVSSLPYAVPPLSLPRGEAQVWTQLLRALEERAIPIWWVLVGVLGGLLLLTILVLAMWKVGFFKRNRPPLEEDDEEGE
Sequence (P05106 27-788): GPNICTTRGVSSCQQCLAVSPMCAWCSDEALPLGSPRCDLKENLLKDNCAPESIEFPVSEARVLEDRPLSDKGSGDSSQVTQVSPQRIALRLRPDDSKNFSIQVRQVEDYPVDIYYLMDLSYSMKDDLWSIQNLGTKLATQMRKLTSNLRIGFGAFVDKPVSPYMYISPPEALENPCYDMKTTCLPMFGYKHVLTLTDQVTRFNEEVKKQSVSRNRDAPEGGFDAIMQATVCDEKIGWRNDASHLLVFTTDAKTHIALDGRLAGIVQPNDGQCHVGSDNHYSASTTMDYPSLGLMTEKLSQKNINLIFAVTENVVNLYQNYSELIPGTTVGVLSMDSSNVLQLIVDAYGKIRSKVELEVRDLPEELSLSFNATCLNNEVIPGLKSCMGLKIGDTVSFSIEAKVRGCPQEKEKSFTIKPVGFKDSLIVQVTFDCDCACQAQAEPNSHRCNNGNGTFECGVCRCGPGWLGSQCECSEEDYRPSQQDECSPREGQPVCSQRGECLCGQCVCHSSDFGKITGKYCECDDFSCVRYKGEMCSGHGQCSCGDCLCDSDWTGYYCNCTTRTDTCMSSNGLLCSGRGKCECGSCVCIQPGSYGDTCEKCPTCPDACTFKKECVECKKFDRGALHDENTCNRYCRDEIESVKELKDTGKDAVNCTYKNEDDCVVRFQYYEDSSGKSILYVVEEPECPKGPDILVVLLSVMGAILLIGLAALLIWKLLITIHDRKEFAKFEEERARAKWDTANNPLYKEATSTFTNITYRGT
ASSAY NAME: Disassociation constants of GP IIb/IIIa antagonists on purified human αIIbβ3
Type: binding
STATED CONDITIONS: activated form of purified human αIIbβ3; read-out: Activated Form KD-A
PROPERTY LABEL: Kd (nM)

Task: Missing value: Kd, purified human platelet αIIbβ3 (Homo sapiens, UniProt P05106+P08514), entry N=C(N)c1ccc(C(=O)NC(Cc2ccc(O)cc2)C(=O)N2CCC(OCC(=O)O)CC2)cc1 (stereo not shown) [RO-44-9883] . Fill in?
Result: 0.96

I = O=C(NC[C@H](NS(=O)(=O)c1cccnc1)C(=O)O)c1cc2cc(CCC3CCNCC3)sc2s1 [compound D]
II = C[C@H](CC(=O)O)NC(=O)CN1CCC[C@@H](CCC2CCNCC2)C1=O [compound C]
Task: Consider I and II . Which of these has its Kd at a higher number? Refer to your chosen entry by its label in the reply.
Result: II

---

SUBJECT OF TEST: purified human platelet αIIbβ3 (Homo sapiens, UniProt P05106+P08514)
Construct: detergent solubilized platelet lysates were passed over a Concanavalin A-Sepharose 4B column; from tissue; host or cells: human platelets (given as outdated human plasma; platelet lysates)
ASSAY NAME: Disassociation constants of GP IIb/IIIa antagonists on purified human αIIbβ3
Type: binding
STATED CONDITIONS: Activated Form KD-A, activated form of purified human αIIbβ3
Bridge positions count the residues as written; N and C are the ends. Ends that are not written are not given here.
PROPERTY LABEL: Kd (nM)
Kindly provide the numeric value in nM only, without the unit symbol.

Task: Would you kindly share the measured Kd for ECESGPCCRNCKFLKEGTICKRARGDDMDDYCNGKTCDCPRNPHKGPAT (disulfide 2-11, 7-32, 8-37, 20-39 (inferred)) [echistatin] ?
Result: 4.6

---

SUBJECT OF TEST: purified human platelet αIIbβ3 (Homo sapiens, UniProt P05106+P08514)
Construct: detergent solubilized platelet lysates were passed over a Concanavalin A-Sepharose 4B column; from tissue; host or cells: human platelets (given as outdated human plasma; platelet lysates)
ASSAY NAME: Disassociation constants of GP IIb/IIIa antagonists on purified human αIIbβ3
Format: binding
STATED CONDITIONS: unactivated form of purified human αIIbβ3; read-out: Unactivated Form KD-B
PROPERTY LABEL: Kd (nM)

Task: Would you kindly share the measured Kd for O=C(NC[C@H](NS(=O)(=O)c1cccnc1)C(=O)O)c1cc2cc(CCC3CCNCC3)sc2s1 ?
Result: 2.4

a = N=C(N)c1ccc(C(=O)NC(Cc2ccc(O)cc2)C(=O)N2CCC(OCC(=O)O)CC2)cc1 (stereo not shown)
b = C[C@H](CC(=O)O)NC(=O)CN1CCC[C@@H](CCC2CCNCC2)C1=O
Task: Consider a and b . Which of these has its Kd at a higher number? Refer to your chosen entry by its label in the reply.
Result: b
